- measured.on: T1, recombinant cynomolgus monkey PD-1 expressed with a C-terminal myc-myc-hexahistidine tag (cynomolgus monkey (Macaca fascicularis))
- T1 construct: monomeric; also called MfPD-1-MMH
- T1 chain: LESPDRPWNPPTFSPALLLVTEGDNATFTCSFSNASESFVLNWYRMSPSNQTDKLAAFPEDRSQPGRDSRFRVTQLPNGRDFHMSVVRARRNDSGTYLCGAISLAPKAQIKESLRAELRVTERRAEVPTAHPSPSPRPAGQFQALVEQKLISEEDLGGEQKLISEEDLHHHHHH
- experimental.details: SPR, mAb captured, 37C;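 note: rate constants from fitting sensorgrams to a 1:1 binding model, with Kd computed as koff/kon and half-life as ln2/(60·koff), PD-1 flowing over anti-PD-1 antibody surfaces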
In this section, each of the binders is paired with its reported kon.
Give the value in M⁻¹ s⁻¹ but do not write M⁻¹ s⁻¹ after it.

Some solved cases for reference:
binder: H2aM7795N (antibody, mouse IgG2a, V domains shown, Human variable regions, mouse IgG2a Fc; also called H2M7795N) VH: EVQVVESGGGLVEPGRSLRLSCKASGFTFDDYAMHWVRQTPGKALEWVSGINWSGNNIGYADSVKGRFTISKDDAKNSLYLQMNSLRPEDTALYYCTKDISITGTLDAFDVWGQGTMVTVSS VL: DIQMTQSPISVSASVGDRVTITCRASQGISNWLAWYQQKPGIAPKLLIYSASSLQSGVPSRFRGSGSGTDFTLTIGSLQPEDFATYYCQQAHSFPLTFGGGTKVEIK
val: 64700

binder: H4H7798N (antibody, human IgG4 S228P, kappa, V domains shown) VH: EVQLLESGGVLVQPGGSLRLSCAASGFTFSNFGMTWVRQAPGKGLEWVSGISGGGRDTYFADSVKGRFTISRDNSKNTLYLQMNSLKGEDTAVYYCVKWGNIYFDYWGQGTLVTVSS VL: DIQMTQSPSSLSASVGDSITITCRASLSINTFLNWYQQKPGKAPNLLIYAASSLHGGVPSRFSGSGSGTDFTLTIRTLQPEDFATYYCQQSSNTPFTFGPGTVVDFRR
val: 213000

binder: H2aM7780N (antibody, mouse IgG2a, V domains shown, Human variable regions, mouse IgG2a Fc (H2aM prefix); also called H2M7780N) VH: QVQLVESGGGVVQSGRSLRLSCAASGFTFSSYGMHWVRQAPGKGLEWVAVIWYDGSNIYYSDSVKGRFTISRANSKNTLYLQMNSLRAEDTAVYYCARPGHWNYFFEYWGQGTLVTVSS VL: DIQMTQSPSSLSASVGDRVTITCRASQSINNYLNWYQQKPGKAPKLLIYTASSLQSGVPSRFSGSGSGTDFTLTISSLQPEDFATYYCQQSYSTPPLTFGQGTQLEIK
val: 22900

Look up kon: H2aM7798N (antibody, mouse IgG2a, V domains shown, Human variable regions, mouse IgG2a Fc; also called H2M7798N) VH: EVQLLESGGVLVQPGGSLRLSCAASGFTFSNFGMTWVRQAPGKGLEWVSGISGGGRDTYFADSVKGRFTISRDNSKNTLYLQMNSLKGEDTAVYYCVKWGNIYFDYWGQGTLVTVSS VL: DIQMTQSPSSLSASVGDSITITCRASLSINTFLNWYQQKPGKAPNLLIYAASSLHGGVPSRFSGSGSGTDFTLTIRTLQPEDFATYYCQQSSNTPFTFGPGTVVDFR
142000

Source listed as patent US20150203579A1.
